System: SN12C
Assay: NCI tumour cell line growth inhibition, 48 h
Where a name gives a salt, the structure may show the parent alone. Activity calls are given as the source filed them. Rule as the data show it: active = GI50 up to about 1.1 µM and inactive = higher.
GI50 for assorted compounds

Use these answered entries as a reference point.
CN[C@@H]1[C@H](O)[C@H](NC)[C@H]2O[C@@]3(O)C(=O)C[C@@H](C)O[C@H]3O[C@@H]2[C@H]1O [SPECTINOMYCIN SULFATE] :: > 100 µM (inactive)
CCCCc1c2c(nc3c1CCC/C3=C\c1ccccc1)C(=O)CCC2 :: 19.6 µM (inactive)
NCCSC1(O)C(=O)c2ccccc2-c2ccccc21 (centres undefined) :: 1.36 µM (inactive)

Item under review: `Cc1ccc(S(=O)(=O)[C@@H](Cl)[C@H]2N=C(Cl)NN=C2c2ccccc2)cc1` . Reported GI50?
21.7 µM (inactive)

Measured values drawn from ChEMBL document CHEMBL1201862 for this set.
